# Assay target: recombinant human His-ATG7 enzyme (Homo sapiens (Human), UniProt O95352)
# Sequence (O95352 whole entry): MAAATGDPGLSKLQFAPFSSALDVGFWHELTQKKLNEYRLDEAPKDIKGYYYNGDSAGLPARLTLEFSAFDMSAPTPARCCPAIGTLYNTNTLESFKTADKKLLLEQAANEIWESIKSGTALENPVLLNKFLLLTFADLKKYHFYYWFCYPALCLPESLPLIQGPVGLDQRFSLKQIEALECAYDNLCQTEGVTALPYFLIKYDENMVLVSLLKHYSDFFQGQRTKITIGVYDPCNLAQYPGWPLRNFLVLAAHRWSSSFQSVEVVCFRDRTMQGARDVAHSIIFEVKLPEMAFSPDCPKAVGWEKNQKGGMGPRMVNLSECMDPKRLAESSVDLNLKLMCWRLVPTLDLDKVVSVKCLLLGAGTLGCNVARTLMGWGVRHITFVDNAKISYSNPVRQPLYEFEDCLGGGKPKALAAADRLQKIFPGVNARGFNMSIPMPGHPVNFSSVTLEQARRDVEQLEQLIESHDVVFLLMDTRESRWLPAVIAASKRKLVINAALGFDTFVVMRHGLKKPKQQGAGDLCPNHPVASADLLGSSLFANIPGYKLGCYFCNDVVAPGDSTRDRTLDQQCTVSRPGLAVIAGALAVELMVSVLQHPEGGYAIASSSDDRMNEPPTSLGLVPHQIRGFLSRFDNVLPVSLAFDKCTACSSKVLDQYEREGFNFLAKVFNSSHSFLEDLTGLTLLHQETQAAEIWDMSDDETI
# Test description: ATG7 Enzyme Assay (HTRF/FRET, ATG3-GST and Flag-Gabarap)
# Type: biochemical
# Setup conditions: Concentration 0.111 μM; read-out: Percent Inhibition
Measured endpoint: inhibition at 0.111 µM (%)
Answer in %, number only, no unit symbol.

Example entries and their recorded answers appear below.
Compound: Nc1ncnc2c1c(Sc1ccc3ccccc3c1)nn2[C@H]1C[C@H](O)[C@H](COS(N)(=O)=O)O1 [Compound I-210]
Value unit: %
inhibition at 0.111 µM: 35
--
Compound: Nc1ncnc2c1c(Sc1cccc(Cl)c1)nn2[C@H]1C[C@H](O)[C@H](COS(N)(=O)=O)O1 [Compound I-224]
Value unit: %
inhibition at 0.111 µM: 39
--
Compound: Nc1ncnc2c1c(Sc1ccc(F)cc1)nn2[C@H]1C[C@H](O)[C@@H](COS(N)(=O)=O)O1 [Compound I-187]
Value unit: %
inhibition at 0.111 µM: 56
--
Compound: Nc1ncnc2c1c(Sc1ccccn1)nn2[C@@H]1O[C@H](COS(N)(=O)=O)[C@@H](O)[C@@H]1F [Compound I-113]
Value unit: %
inhibition at 0.111 µM: 89
--
Compound: Nc1ncnc2c1c(Sc1c[nH]c3ccccc13)nn2[C@H]1C[C@H](O)[C@@H](COS(N)(=O)=O)O1 [Compound I-170]
Value unit: %
inhibition at 0.111 µM: 50

Consider the compound shown here: Nc1ncnc2c1c(SCC1CC1)nn2[C@@H]1O[C@H](COS(N)(=O)=O)[C@@H](O)[C@H]1O [Compound I-50] What is its recorded inhibition at 0.111 µM?
88

Please give the result for CCc1nn([C@H]2C[C@H](O)[C@H](COS(N)(=O)=O)O2)c2ncnc(N)c12 [Compound I-212] too.
7
